These measurements were taken from patent US20240409536A1.

Test system: MYB mRNA
Experiment: Splicing RT-qPCR assay, MYB canonical (CJ) and alternative (AJ) junction mRNA
Assay type: cell-based
Conditions: Homo sapiens, decrease in canonical junction mRNA, A673 or K562 cells, 24 hours
RESULT_TYPE: IC50

In [3]: df
Out[3]:
                                   molecule    observed_value
0  Cc1cn2cc(NC(=O)c3ccc(N4CCN[C@@H](CF)C4)c4nccnc34)cc(F)c2n1  1000 to 10000 nM

Report IC50 for each item below.
1. COc1ncc2c(N3C[C@H](C)N[C@@H](C)C3)ccc(C(=O)Nc3cc(F)c4nc(C)cn4c3)c2n1
2. Cc1cn2cc(NC(=O)c3ccc(N4C[C@@H](C)N[C@@H](C)C4)c4nccnc34)nc(C)c2n1
3. Cc1cn2cc(NC(=O)c3ccc(N4CCNC5(COC5)C4)c4nccnc34)cc(F)c2n1
4. O=C(Nc1cn[nH]c1)c1ccc(N2CCNCC2)c2ccnnc12
5. Cc1cn2cc(NC(=O)c3ccc(N4CCN5CCOC[C@H]5C4)c4nccnc34)cc(F)c2n1

OUT:
1. < 100 nM
2. < 100 nM
3. 1000 to 10000 nM
4. > 10000 nM
5. 1000 to 10000 nM
